target: purified HHAT (Homo sapiens); construct: made in house; experiment: Acyl-cLIP assay, inhibition of purified HHAT; assay type: biochemical
Sequence (Q5VTY9 whole entry): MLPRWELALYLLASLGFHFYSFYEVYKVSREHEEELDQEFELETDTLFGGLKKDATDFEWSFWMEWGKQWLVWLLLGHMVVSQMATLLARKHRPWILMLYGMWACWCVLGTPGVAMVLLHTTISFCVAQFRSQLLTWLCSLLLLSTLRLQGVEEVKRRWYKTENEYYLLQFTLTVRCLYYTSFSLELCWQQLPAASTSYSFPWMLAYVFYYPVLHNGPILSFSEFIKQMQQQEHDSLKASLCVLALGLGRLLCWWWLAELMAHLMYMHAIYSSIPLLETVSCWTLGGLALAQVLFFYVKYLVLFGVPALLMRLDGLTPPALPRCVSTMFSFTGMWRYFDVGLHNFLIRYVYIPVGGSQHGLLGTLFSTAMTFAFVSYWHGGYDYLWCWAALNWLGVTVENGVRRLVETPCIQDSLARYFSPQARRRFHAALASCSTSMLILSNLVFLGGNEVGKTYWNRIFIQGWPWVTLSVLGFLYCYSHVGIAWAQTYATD

Compound: CC(C)CNCC(=O)N1CCc2ccccc2C1c1ccccc1 (stereo in doubt)
HHAT inhibition in the acyl-cLIP assay: no inhibitory activity
--
Compound: Cc1cccc([C@@H]2c3ccsc3CCN2C(=O)CNCC(C)C)n1
HHAT inhibition in the acyl-cLIP assay: no inhibitory activity
--
Compound: c1ccc(C2NCCc3sccc32)cc1 (stereo not drawn)
HHAT inhibition in the acyl-cLIP assay: inactive
--
Compound: Cc1cccc(C2NCCc3sccc32)c1 (stereo not drawn)
HHAT inhibition in the acyl-cLIP assay: inactive

Where do these numbers come from? They come from paper PMC10823475.
